src = PubChem BioAssay (NCI)

I'd be grateful if you could share measured growth for these entries.
# System: OVCAR-8 ovarian
# method_summary: NCI-60 one-dose screen, 48 h (100 = growth as untreated, 0 = no growth, -100 = all killed)
# run_conditions: 10 µM
About 83,000 compounds went through this panel and 20% of them were active in at least one assay; those are over-represented in the sample as a whole. The source made the active and inactive calls. Rule for the calls: active = growth percent below 10; inactive = the rest.

Report growth for COc1ccc(-c2nc(SCC(=O)c3ccc(Br)cc3)[nH]c(=O)c2C#N)cc1 please.
106% (inactive)

Sample CCOC(=O)c1cc(-c2ccccc2)nc(N)n1 — what was its growth?
103% (inactive)

What value of growth has been reported for the following compound? Cc1ccc2nc(-c3ccc(OCC(=O)N=Nc4c(O)[nH]c5ccccc45)cc3)[nH]c2c1
18.5% (inactive)

For the compound O=C(Cn1ccc(=O)[nH]c1=O)c1ccc([N+](=O)[O-])o1 , what growth is on record?
103% (inactive)

Quick one: growth of COc1ccc(-c2oncc2-c2cc(OC)c3c(c2)OCO3)cc1 ?
35.6% (inactive)

Could you share which growth value was measured for COc1cc(-c2nc3cc(Cl)c(Cl)cc3[nH]2)ccc1OCC(=O)NN ?
76.4% (inactive)

###

# Test system: UACC-257 melanoma
# method_summary: NCI-60 one-dose screen, 48 h (100 = growth as untreated, 0 = no growth, -100 = all killed)
# run_conditions: 10 µM
# Experimental: Cells are grown in 96 well plates and exposed to the test compound for 48 hours. Compounds are tested at a single concentration, which is 10^-5 M for most compounds. The reported endpoint is percent growth (GI% or GIPRCNT), where numbers from 0 - 100% represent growth inhibition, and numbers from -100% - 0 represent cell death. For example, a value of 40 represents 60% growth inhibition. A value of 0 means no net growth occurred over the course of the experiment. […]
This is part of a sample that, as a whole, favours compounds with a hit. Of some 83,000 tested, about 20% had one in any assay.
Please go through the items and note down their growth.
Quick reminder: number only, in %, skip the unit.

Would you kindly share the measured growth for CN1CCN(c2nc(-c3cccnc3)nc3sc4c(c23)CCCCCC4)CC1 ?
102

// lookup growth for CC1(C)CNC(=O)N1
99.8

Requested read-out: growth. Entry: COc1ccc(-c2[nH]ncc2/C=C/c2cc(C(F)(F)F)[nH]c(=O)n2)cc1
98.3

So what does the record say about growth for CC(=O)n1nc(C(=O)OC(C)(C)C)c2cc(F)c(F)cc21 ?
113

# growth lookup, item CNC(=O)c1cc(Oc2ccc(NC(=O)Nc3ccc(Cl)c(OC(C)C)c3)c(F)c2)ccn1
26.9

Recorded growth of Cc1cc(C)c(/C=C2\C(=O)Nc3ccc(NC(=O)CCCCCCC(=O)NO)cc32)[nH]1 , please.
0.0206

Returns the measured growth for the input compound. Input: O=C(c1ccc(Cl)cc1)c1no[n+]([O-])c1C(=O)c1ccc(Cl)cc1
104

Query (compound): C=CCn1c(C)nc2cc(Nc3nc(Nc4ccc5nc(C)n(CC=C)c5c4)c4ccccc4n3)ccc21 ; field requested: growth
-79.8

Sample C#C[C@]1(O)CC[C@H]2[C@@H]3CC[C@H]4CC(F)(F)CC[C@]4(C)[C@H]3CC[C@@]21C — what was its growth?
78.3

Can you share its growth? I mean this compound: O=c1c2cccc3c(Nc4ccc(Br)cn4)ccc(c32)c2nc3ccccc3n12
102
